Each entry below lists one item and its recorded relative viability EC50 value.
Test system: Calu-3
Test: relative viability EC50 (midpoint between 100% and the lowest measured viability); higher = less toxic
Conditions: 72 h

Examples with their reported relative viability EC50 follow.
Compound: COc1cc2ncnc(Nc3cccc(Br)c3)c2cc1OC
relative viability EC50: 0.497 µM
//
Compound: CCCCCCCCCCC(C)(C)C(=O)Nc1c(OC)cc(OC)cc1OC
relative viability EC50: > 10 µM
//
Compound: CSc1ccccc1OCC(O)CNC(C)C (stereo not given)
relative viability EC50: > 10 µM
//
Compound: CCC1(c2ccc(N)cc2)CCC(=O)NC1=O (stereo not given) [aminoglutethimide]
relative viability EC50: > 10 µM
//
Compound: CCC1=C(C)CN(C(=O)NCCc2ccc(S(=O)(=O)NC(=O)N[C@H]3CC[C@H](C)CC3)cc2)C1=O [glimepiride]
relative viability EC50: > 10 µM

Turning now to a further compound:
Task: What value of measured relative viability EC50 is listed for "NC(=O)c1ccc(-c2nc(-c3ccccn3)c(-c3ccc4c(c3)OCO4)[nH]2)cc1" ?
Output: > 10 µM

* * *

System: HepG2
Assay: relative viability EC50 (midpoint between 100% and the lowest measured viability); higher = less toxic
Conditions: 72 h
Each entry below lists one item and its recorded relative viability EC50 value.

Compound: CCOCc1cc(OC)c(-c2ccc(C[C@H](NC(=O)c3c(F)cccc3F)C(=O)O)cc2)c(OC)c1
relative viability EC50: > 10 µM
--
Compound: O=C(NCCCCCCNC(=O)ON=C1CCCCC1)ON=C1CCCCC1
relative viability EC50: > 10 µM
--
Compound: O=C1Nc2ccc(Cl)c3c2C1(CCCCN1CC=C(c2ccc(Cl)cc2)CC1)CCC3 (stereo not given)
relative viability EC50: 3.27 µM
--
Compound: O=P(O)(O)C(O)(Cn1ccnc1)P(=O)(O)O
relative viability EC50: > 10 µM

Task: What value of measured relative viability EC50 is listed for "CCn1cc(C(=O)O)c(=O)c2cc(F)c(N3CCN(C)CC3)cc21" ?
Output: > 10 µM

* * *

System: U2OS
Assay: drug sensitivity score (DSS) for viability; higher = more toxic; extreme values may be limits of the assay
Conditions: 72 h
Attribute measured: drug sensitivity score
Write no unit; give the number alone.

Examples with their reported drug sensitivity score follow.
Molecule: CC(CNS(=O)(=O)C(C)C)c1ccc(-c2ccc(C#N)cc2)cc1 (stereo not given)
drug sensitivity score: 0.1

Molecule: CCCCC[C@H](O)/C=C/[C@H]1[C@H](O)CC(=O)[C@@H]1CCCCCCC(=O)O
drug sensitivity score: 0

Molecule: Cc1ncc(CN2CC=C(c3ccccc3)CC2)c(N)n1
drug sensitivity score: 0

Molecule: Cn1c(COc2ccc(CC3SC(=O)NC3=O)cc2)nc2ccccc2c1=O (stereo not given)
drug sensitivity score: 0

Turning now to a further molecule:
Task: What value of measured drug sensitivity score is listed for "Cc1ccc2c(=O)c3cccc(CC(=O)O)c3oc2c1C" ?
Output: 0

* * *

Test system: HepG2
Assay: cell viability relative to DMSO; higher = less toxic
Conditions: 72 h; 10000 nM
Attribute measured: cell viability (%)
Record the value in %, omitting the unit from your answer.

Examples with their reported cell viability follow.
Molecule: O=C(O)CCCCC(CCSCc1ccccc1)SCc1ccccc1 (centres undefined) [CPI-613]
cell viability / %: 104
--
Molecule: Cc1cc(=O)n(-c2ccccc2)[nH]1 [N-demethylantipyrine]
cell viability / %: 93.8
--
Molecule: CCCC[C@@H](NC(=O)[C@@H](Cc1cn(C(=O)OC)c2ccccc12)NC(=O)[C@H](CC(C)(C)C)NC(=O)N1[C@H](C)CCC[C@@H]1C)C(=O)O [BQ-788]
cell viability / %: 101

Turning now to a further molecule:
Task: What value of measured cell viability is listed for CCOc1ccc(Cc2cc([C@@H]3O[C@H](SC)[C@@H](O)[C@H](O)[C@H]3O)ccc2Cl)cc1 [sotagliflozin] ?
Output: 91.8

* * *

Each entry below lists one item and its recorded cell viability value.
Tested on: Vero E6
Experiment: cell viability relative to DMSO; higher = less toxic
Conditions: 72 h; 1 nM
Record the value in %, omitting the unit from your answer.

Compound: CCN(CC)CCOCCOC(=O)C(CC)(CC)c1ccccc1 [oxelaidin]
Target or system: Vero E6
cell viability (%): 94.2

Compound: Cc1cccc(COc2cccc(/C=C3\C(=O)NN(c4ccccc4)C3=O)c2)c1 [Y16]
Target or system: Vero E6
cell viability (%): 98.5

Compound: CCCCC[C@H](O)/C=C/[C@H]1[C@H](O)CC(=O)[C@@H]1CCCCCCC(=O)O [alprostadil]
Target or system: Vero E6
cell viability (%): 101

Compound: C=C[C@]1(C)C[C@@H](OC(=O)CS[C@@H]2C[C@H]3CC[C@@H](C2)N3C)[C@]2(C)[C@H](C)CC[C@]3(CCC(=O)[C@H]32)[C@@H](C)[C@@H]1O [retapamulin]
Target or system: Vero E6
cell viability (%): 94.9

Compound: OC[C@H]1NCC[C@@H](O)[C@@H]1O [fagomine]
Target or system: Vero E6
cell viability (%): 95.6

Task: What value of measured cell viability is listed for CC(=O)[C@H]1CC[C@H]2[C@@H]3C[C@H](C)C4=CC(=O)CC[C@]4(C)[C@H]3[C@@H](O)C[C@]12C [medrysone] ?
Output: 98

Task: What value of measured cell viability is listed for Oc1ccc([C@@H]2Oc3ccc(O)cc3[C@@H]3CCC[C@@H]32)cc1 [erteberel] ?
Output: 94.8

Task: What value of measured cell viability is listed for CC(C)(C)NCC(O)COc1cccc2[nH]c(C#N)cc12 (stereo not drawn) [cyanopindolol] ?
Output: 102

Task: What value of measured cell viability is listed for Cc1ccc(S(=O)(=O)NCc2ccccc2)cc1 [BTS] ?
Output: 104

Task: What value of measured cell viability is listed for Cc1ccc2c(=O)c3cccc(CC(=O)O)c3oc2c1C [ASA-404] ?
Output: 102

Task: What value of measured cell viability is listed for CN(C)CCc1c[nH]c2ccc(Cn3cncn3)cc12 [rizatriptan] ?
Output: 101

Task: What value of measured cell viability is listed for CC[N+](CC)(CC(=O)Nc1c(C)cccc1C)Cc1ccccc1 [denatonium-benzoate] ?
Output: 95.1

Task: What value of measured cell viability is listed for Cc1cc(=O)n(-c2ccccc2)[nH]1 [N-demethylantipyrine] ?
Output: 104

* * *

Each entry below lists one item and its recorded cell viability value.
Tested on: Caco-2
Experiment: cell viability relative to DMSO; higher = less toxic
Conditions: 72 h; 10000 nM
Where a name gives a salt, the structure may show the parent alone.
Record the value in %, omitting the unit from your answer.

Examples with their reported cell viability follow.
Compound: CN(C)/N=N/c1[nH]cnc1C(N)=O [dacarbazine]
Result unit: %
cell viability: 93.4

Compound: COc1cccc2c1C(=O)c1c(O)c3c(c(O)c1C2=O)C[C@@](O)(C(=O)CO)C[C@@H]3O[C@H]1C[C@H](N)[C@@H](O)[C@H](C)O1 [Epirubicin Hydrochloride]
Result unit: %
cell viability: 30.9

Task: What value of measured cell viability is listed for Nc1nc(=O)n([C@H]2C[C@H](O)[C@@H](CO)O2)cc1F [fdcyd] ?
Output: 86.1

Task: What value of measured cell viability is listed for O=c1cc(N2CCOCC2)nc2c3ccccc3ccn12 [compound-401] ?
Output: 85.8

* * *

Each entry below lists one item and its recorded drug-induced phospholipidosis value.
Test system: A549-ACE2
Assay: drug-induced phospholipidosis relative to tamoxifen; higher = more phospholipidosis
Conditions: 0.3 µM; 72 h
Record the value in %, omitting the unit from your answer.

Structure string: NS(=O)(=O)C#Cc1ccccc1
Target or system: A549-ACE2
Result unit: %
Assay value: 3.99

Structure string: CN1CCC(CNc2ccc3ncc(-c4cccc(OC(F)(F)F)c4)n3n2)CC1
Target or system: A549-ACE2
Result unit: %
Assay value: 3.7

Structure string: CC/C(=C(/c1ccc(OCCN(C)C)cc1)c1cccc(O)c1)c1ccccc1
Target or system: A549-ACE2
Result unit: %
Assay value: 3.83

Turning now to a further molecule:
Task: What value of measured drug-induced phospholipidosis is listed for "O=C(NCCCN1CCC2(CC1)OCc1ccccc12)[C@H]1CCCN1Cc1ccccc1" ?
Output: 5.31

* * *

System: HepG2
Assay: cell viability relative to DMSO; higher = less toxic
Conditions: 72 h; 1 nM
Attribute measured: cell viability (%)
Record the value in %, omitting the unit from your answer.

Examples with their reported cell viability follow.
Compound: OC[C@H]1O[C@@H](OCCc2ccc(O)cc2)[C@H](O)[C@@H](O)[C@@H]1O [salidroside]
Target or system: HepG2
cell viability [%]: 91.4
--
Compound: CCNC(=O)N1CCN(CCCC(c2ccc(F)cc2)c2ccc(F)cc2)CC1 [amperozide]
Target or system: HepG2
cell viability [%]: 98.5
--
Compound: COc1ccc2cccc(CCNC(C)=O)c2c1
Target or system: HepG2
cell viability [%]: 97.7
--
Compound: CN1c2c([nH]c(N)nc2=O)NC[C@@H]1CNc1ccc(C(=O)N[C@@H](CCC(=O)O)C(=O)O)cc1
Target or system: HepG2
cell viability [%]: 102
--
Compound: C=C1/C(=C\C=C2/CCC[C@]3(C)[C@@H]([C@H](C)CCCC(C)(C)O)CC[C@@H]23)C[C@@H](O)C[C@@H]1O
Target or system: HepG2
cell viability [%]: 116
--
Compound: CC/C(=C(/CC)c1ccc(O)cc1)c1ccc(O)cc1
Target or system: HepG2
cell viability [%]: 111
--
Compound: COc1cc2c(cc1OC)CC(=O)N(CCCN(C)C[C@H]1Cc3cc(OC)c(OC)cc31)CC2
Target or system: HepG2
cell viability [%]: 109
--
Compound: CCN(CC)CCOCCOC(=O)C(CC)(CC)c1ccccc1
Target or system: HepG2
cell viability [%]: 104
--
Compound: CC(C)NCC(O)COc1ccc(COCCOC(C)C)cc1 (centres undefined)
Target or system: HepG2
cell viability [%]: 104
--
Compound: CC(=O)Nc1ccc(Cc2ccc(NC(C)=O)cc2)cc1
Target or system: HepG2
cell viability [%]: 99.5

Task: What value of measured cell viability is listed for "O=C(O)Cc1cccc(OCCCN(Cc2cccc(C(F)(F)F)c2Cl)CC(c2ccccc2)c2ccccc2)c1" ?
Output: 90.9

Task: What value of measured cell viability is listed for Cc1ncc(COP(=O)([O-])[O-])c(CN(CCN(CC(=O)O)Cc2c(COP(=O)([O-])O)cnc(C)c2O)CC(=O)O)c1O.[Mn].[Na+].[Na+].[Na+] [Mangafodipir (trisodium)] ?
Output: 110
